TEST_TARGET: recombinant HsEg5 motor domain (amino acids 1-369-8His) (Homo sapiens)
Construct: Enzyme was recombinant HsEg5 motor domain (amino acids 1-369-8His); 8His (C)
Sequence (P52732 1-369): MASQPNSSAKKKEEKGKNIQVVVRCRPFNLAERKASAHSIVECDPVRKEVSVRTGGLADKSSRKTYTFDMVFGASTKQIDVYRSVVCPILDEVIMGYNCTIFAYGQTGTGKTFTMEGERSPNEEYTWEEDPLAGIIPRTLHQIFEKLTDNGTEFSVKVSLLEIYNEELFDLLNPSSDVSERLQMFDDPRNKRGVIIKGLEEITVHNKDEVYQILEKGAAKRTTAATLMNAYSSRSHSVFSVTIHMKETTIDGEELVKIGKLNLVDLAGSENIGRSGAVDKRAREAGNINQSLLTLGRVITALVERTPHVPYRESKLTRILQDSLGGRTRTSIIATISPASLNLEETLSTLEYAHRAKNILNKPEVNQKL
TEST: Malachite Green Assay (Eg5 motor ATPase, phosphate liberated from ATP)
Field: IC50. Provide a value for each of the compounds that follow.

Query: Fill in the blank: the reported IC50 of CCC(c1nc2c(C)nsc2c(=O)n1Cc1ccccc1)N(CCCN)C(=O)c1ccc(C)cc1 (centres unmarked) [Section 2: Example E1] is ____.
Result: 90 nM

Query: Then what about the compound CCC(c1nc2snc(C)c2c(=O)n1Cc1ccccc1)N(CCCN)C(=O)c1cccc(Cl)c1Cl (single isomer, unassigned; (+)) [Section 3: Example A7] ?
Result: 136 nM
